Tested on: MALME-3M melanoma
Experiment: NCI tumour cell line growth inhibition, 48 h; in the data active means GI50 below about 0.43 µM; inactive means the rest
Just give me one of these, please: 1 = active, 0 = inactive

Record lookup: outcome of this test for Cc1noc2c1-c1ccccc1C(c1ccc(Cl)cc1)=N[C@H]2CC(N)=O ?
0

Record lookup: outcome of this test for COc1ccc(-c2nn(-c3cccc(Cl)c3)cc2-c2nc(N)[nH]c(=O)c2C#N)cc1 ?
0

Record lookup: outcome of this test for CCOC(=O)c1sc(NC(=O)COc2cccc(/C=C3\CCc4cc(OC)ccc4C3=O)c2)nc1C ?
0

Record lookup: outcome of this test for NCCCn1c2c(c3ccccc3c1=O)C(=O)c1ccccc1-2 ?
1

Record lookup: outcome of this test for COc1cc2c3c(n(CCCN(CCO)CCO)c(=O)c2cc1OC)-c1cc2c(cc1C3=O)OCO2 ?
0

Record lookup: outcome of this test for COc1ccc(-c2cc(Nc3ccnc(N4CCOCC4)n3)on2)cc1 ?
1

Record lookup: outcome of this test for O=C(NNc1cnccn1)c1nc2cc(F)ccc2n2cccc12 ?
0

Record lookup: outcome of this test for COc1cc(OC)c2sc(-c3ccc(-n4cncc4-c4cc(OC)c(OC)c(OC)c4)cc3)nc2c1 ?
0

Record lookup: outcome of this test for C=C(C)[C@@H]1CC[C@]2(C)[C@H](CC[C@@H]3[C@@H]([C@@](C)(O)CCC=C(C)C)CC[C@]32C)[C@@]1(C)CCC(=O)O ?
0

All values here come from PubChem BioAssay (NCI).
